Measured In vitro activity relative to native peptide (%), vs. GIP (cAMP EC50) values are reported for all entries that follow.
# tested_target: T1, human GIP receptor (human, UniProt P48546 22-466)
# T1 sequence (looked up): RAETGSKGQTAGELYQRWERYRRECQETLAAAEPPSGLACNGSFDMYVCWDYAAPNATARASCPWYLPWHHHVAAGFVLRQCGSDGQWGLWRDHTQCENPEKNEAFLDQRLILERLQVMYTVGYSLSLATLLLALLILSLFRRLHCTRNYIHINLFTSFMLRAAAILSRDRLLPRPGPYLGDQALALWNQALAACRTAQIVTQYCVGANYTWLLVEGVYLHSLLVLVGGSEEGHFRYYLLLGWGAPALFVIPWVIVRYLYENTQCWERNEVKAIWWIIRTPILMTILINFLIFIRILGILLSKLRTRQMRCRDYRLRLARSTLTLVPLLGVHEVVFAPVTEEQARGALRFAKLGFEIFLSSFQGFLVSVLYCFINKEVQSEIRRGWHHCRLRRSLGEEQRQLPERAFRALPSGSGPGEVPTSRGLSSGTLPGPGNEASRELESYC
# assay_name: cell-based or functional assay
Positions of bridges follow the written chain, without caps; N, C: chain ends. Non-standard residues stand in square brackets, D forms with d. No end group written: not given here. *: point of attachment. Acetyl(2-(4-imidazolyl)) = O=C(Cc1c[nH]cn1)*; Aib = CC(C)(N)C(=O)O
measure_name: In vitro activity relative to native peptide (%), vs. GIP (cAMP EC50)

binder	observed_value
H[Aib]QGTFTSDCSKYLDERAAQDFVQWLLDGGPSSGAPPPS [trigonal agonist of SEQ ID NO: 25]	< 0.1%
Y[Aib]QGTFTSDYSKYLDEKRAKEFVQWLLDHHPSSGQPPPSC (bridge 16-20) [trigonal agonist of SEQ ID NO: 42]	7.8%
{Acetyl(2-(4-imidazolyl))}-[Aib]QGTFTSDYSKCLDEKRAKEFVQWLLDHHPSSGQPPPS (bridge 15-19) [trigonal agonist of SEQ ID NO: 74]	1%
H[Aib]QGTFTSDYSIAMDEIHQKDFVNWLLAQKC (bridge 16-20) [trigonal agonist of SEQ ID NO: 33]	10.4%
Y[Aib]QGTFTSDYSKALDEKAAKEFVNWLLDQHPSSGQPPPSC (bridge 16-20) [trigonal agonist of SEQ ID NO: 101]	40.1%
{Acetyl(2-(4-imidazolyl))}-[Aib]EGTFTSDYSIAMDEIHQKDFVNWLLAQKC (bridge 15-19) [trigonal agonist of SEQ ID NO: 90]	< 0.1%
{Acetyl(2-(4-imidazolyl))}-[Aib]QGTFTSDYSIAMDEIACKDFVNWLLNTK (bridge 15-19) [trigonal agonist of SEQ ID NO: 61]	2.8%
{Acetyl(2-(4-imidazolyl))}-[Aib]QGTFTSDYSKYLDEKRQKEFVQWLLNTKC (bridge 15-19) [trigonal agonist of SEQ ID NO: 88]	< 0.1%
H[Aib]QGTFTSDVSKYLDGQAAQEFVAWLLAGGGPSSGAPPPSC [trigonal agonist of SEQ ID NO: 10]	< 0.1%
{Acetyl(2-(4-imidazolyl))}-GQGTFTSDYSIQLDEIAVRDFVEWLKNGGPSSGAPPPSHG [trigonal agonist of SEQ ID NO: 14]	< 0.1%
H[Aib]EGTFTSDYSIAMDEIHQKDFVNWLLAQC (bridge 16-20) [trigonal agonist of SEQ ID NO: 53]	1.3%

Data provenance is patent US20230390362A1.
